# pIC50 values compiled below
System: HCV Genotype 2a, NS5B Mutation none
Assay: microbe, parasite or virus in culture
Type: cell-based
Conditions: Hepatitis C virus, read-out: IC50 Value
The value called pIC50 is obtained by taking minus log10 of the concentration in mol/L.

These recorded examples may help you get a feel for the data.
INSERT INTO assay_data (compound, recorded_result) VALUES
  ('CC(C)OC(=O)[C@H](C)N[P@](=O)(OCC1O[C@@H](n2cnc3c(N(C)C4CC4)nc(N)nc32)[C@](C)(F)[C@@H]1O)Oc1ccccc1 (stereo partly drawn)', 8.54),
  ('CC(C)OC(=O)[C@H](C)N[P@](=O)(OCC1O[C@@H](n2cnc3c(N(C)C)nc(N)nc32)[C@](C)(F)[C@@H]1O)Oc1ccccc1 (stereo partly drawn)', 8.57);

IN: Param request: pIC50 | system HCV Genotype 2a, NS5B Mutation none | item CNc1nc(N)nc2c1ncn2[C@@H]1OC(CO[P@@](=O)(N[C@@H](C)C(=O)OC(C)C)Oc2ccccc2)[C@@H](O)[C@@]1(C)F (stereo partly drawn)
OUT: 8.21

* * *

System: micro-patterned human hepatocyte co-cultures
Assay: Human Hepatocyte Co-Cultures (HepatoPac): cytotoxicity and hepatocyte health
Format: cell-based
Details: Homo sapiens, Hepatocyte, 168 h, Table 5, Day 7; read-out: Effect on Albumin Secretion, 50% Inhibitory Concentration (IC50)
Protocol: Cytotoxicity and hepatocyte health were assessed in triplicate by measuring ALT leakage, urea production, albumin secretion and cellular ATP contents in micro-patterned human hepatocyte co-cultures (HepatoPac®, Hepregen Corporation) prepared by seeding cryopreserved human hepatocytes (single donor) and 3T3 J2 mouse fibroblasts in microtiter plates according to procedures established by Hepregen. […] Cellular ATP levels were measured on days 9 and 21. […]
Endpoint Name: IC50 (µM)
Number in µM, nothing else.

IN: Write down the reported IC50 (system: micro-patterned human hepatocyte co-cultures) of COc1nc(N)nc2c1ncn2[C@@H]1O[C@H](COP(=O)(N[C@@H](C)C(=O)OCC(C)(C)C)Oc2cccc3ccccc23)[C@@H](O)[C@@]1(C)O (some centres unmarked)
OUT: 3.2

* * *

Assay: Cytotoxicity by XTT staining in replicon cells
Details: human
Endpoint Name: CC50 at 72 h

INSERT INTO measurements (compound, recorded_result) VALUES
  ('CCCN(C)c1nc(N)nc2c1ncn2[C@@H]1O[C@H](CO)[C@@H](O)[C@@]1(C)F', '> 100 µM'),
  ('CC(C)OC(=O)[C@H](C)N[P@@](=O)(OCC1O[C@@H](n2cnc3c(N(C)C)nc(N)nc32)[C@](C)(F)[C@@H]1O)Oc1ccccc1 (stereo partly shown)', '> 100 µM');

IN: Find the measured CC50 at 72 h of `CN(c1nc(N)nc2c1ncn2[C@@H]1O[C@H](CO)[C@@H](O)[C@@]1(C)F)C1CC1` and report it.
OUT: > 100 µM

IN: Give recorded CC50 at 72 h. CC(C)OC(=O)[C@H](C)NP(=O)(OCC1O[C@@H](n2cnc3c(N(C)C4CC4)nc(N)nc32)[C@](C)(F)[C@@H]1O)Oc1ccccc1 (stereo partly shown)
OUT: > 100 µM

IN: Return CC50 at 72 h for the following compound: `C#C[C@@]1(F)[C@H](O)[C@@H](CO)O[C@H]1n1cnc2c(N(C)C)nc(N)nc21`
OUT: 21.8 µM

IN: Please list CC50 at 72 h recorded for the compound CCN(C)c1nc(N)nc2c1ncn2[C@@H]1OC(COP(=O)(N[C@@H](C)C(=O)OC(C)C)Oc2ccccc2)[C@@H](O)[C@@]1(C)F (stereo partly shown)
OUT: 90 µM

IN: Return value of CC50 at 72 h for input CNc1nc(N)nc2c1ncn2[C@@H]1OC(CO[P@](=O)(N[C@@H](C)C(=O)OC(C)C)Oc2ccccc2)[C@@H](O)[C@@]1(C)F (stereo partly shown) , no commentary.
OUT: > 100 µM

Each recorded value in this set is attributed to patent US12084473B2.
